TESTED SYSTEM: T1, human TIGIT (human, UniProt Q495A1 22-244)
T1 sequence: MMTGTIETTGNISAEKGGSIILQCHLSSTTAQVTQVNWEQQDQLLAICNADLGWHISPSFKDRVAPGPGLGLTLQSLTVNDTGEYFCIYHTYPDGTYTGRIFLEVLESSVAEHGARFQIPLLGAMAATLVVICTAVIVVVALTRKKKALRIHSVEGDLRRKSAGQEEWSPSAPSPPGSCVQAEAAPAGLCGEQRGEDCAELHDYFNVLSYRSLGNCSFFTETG
ASSAY EXPLANATION: cell-based or functional assay
Reported Potency [nM], Jurkat human TIGIT/IL-2-luciferase RGA, n = 1 is given for each of the following binders.
State just the number; it will be interpreted in nM.

Examples with their reported Potency [nM], Jurkat human TIGIT/IL-2-luciferase RGA, n = 1 follow.
28B8 (antibody, V domains shown, Fully human XenoMouse antibody, tested as hybridoma supernatant or purified mAb) VH: QVQLQESGPGLVKPSETLFLTCTVSGGSVTNYYWSWIRQPAGKGLEWIGRIYTSGSTYYNPSLKSRVTMSLDTSKNQFSLRLSSVTAADTAVYYCAREGFTMVRGVMGAFDIWGQGTMVTVSS VL: DIQMTQSPSSLSASVGDRVTITCRASQSIRRYLNWYQQIPGKAPKFLIYDASSLQSGVPSRFSGSGSGTDFTLTISSLQPEDFATYYCQQSYSTPPTFGQGTKVEIKR | 4.3
55G7 (antibody, V domains shown, Fully human XenoMouse antibody, tested as hybridoma supernatant or purified mAb) VH: QVQLVESGGGVVQPGRSLRLSCAASGFTFSSYGMHWVRQAPGKGLEWVALIWFDESNIYYADSVKGRFTISRDNSKNTLYLQMNSLRAEDTAVYFCARGYDLLTGYYNFDFWGLGTLVTVSA VL: QAGLTQPPSVSKGLRQTATLTCTGNTNNVGNRGAAWLQQHQGHPPKLLSYRNNNRPSGISERLSASRSGNTASLTITGLQPEDEADYYCSAWDSSLSAWVFGGGTKLTVLG | 4.4
66H9 (antibody, V domains shown, Fully human XenoMouse antibody, tested as hybridoma supernatant or purified mAb) VH: QVQLQESGPGLVKPSQTLSLTCTVSGGSISSVYFYWNWIRQHPGKGLEWIGYIYYSGGTYYNPSLRSRVTISVDTSKNQFSLKLNSVTAADTAVYYCARGSIAAGGGYFYYNDMDVWGQGTTVTVSS VL: EIVLTQSPDFQSVTPKEKVAITCRASQSIGSSLHWYQQKPDQSPKPLIKYVSQSFSGVPSRFSGSGSGTDFTLTINSLEAEDAATYYCHQSSSLPLTFGGGTKVEIKR | 3.4
43B7 (antibody, V domains shown, Fully human XenoMouse antibody, tested as hybridoma supernatant or purified mAb) VH: QVQLQESGPGLVKPSQTLSLTCTVSGGSISSGGYYWSWIRQHPGKGLEWIGYIYYRGGTYYNPSLRSRVTMSVDTSKNQFSLMLSSVTAADTAVYYCARTIFGVIILDNWGQGTPVTVSS VL: DIQMTQSPSSLSASVGDRVTITCRSSQSISSYLNWYQQKPGRAPKLLIHAASSLQSGVPSRFSGSGSGTDFTLTISSLQPEDFASYCCQQSYTTPPTFGGGTKVEIKR | 3.4
11A3 (antibody, V domains shown, Fully human XenoMouse antibody, tested as hybridoma supernatant or purified mAb) VH: QVQLVQSGAEVKKPGASVKVSCKASGYTFTSYYIHWVRQAPGQGLEWMGIINPSGGRTSYAQMFQGRVTLTRDTSTNTVYMELSSLRSEDTAVFYCAKDREEQWPVGGFDYWGQGTLVTVSS VL: DIQMTQSPSSLSASVGDRVTITCRASQNIRRYLNWYQQKPGKAPELLIYSASNLQNGVPSRFSGSGSGTDFTLTISSLQPEDFATYYCQQSYIIPPTFGQGTKVEIRR | 1.9
4G10 (antibody, V domains shown, Fully human XenoMouse antibody, tested as hybridoma supernatant or purified mAb) VH: QVQLQESGPGLVNPSQTLSLTCIVSGGSIRSGDYYWSWIRQHPGKGLEWIGYIYYSGGTYYNPSLKSRVIISVDTTKNQFSLKLSSMTAADTAVYYCARGSIAARSGYFYFSGLDVWGQGPTVTVSS VL: EIVLTQTPLSLSVTPGQPASISCKSSQSLLPSDGKTYLSWYLQKPGLPPQVLIYEVSNRFSGVPDRFSGSGSGTDFTLKISRVEAEDVGVYYCMQSIQLPLTFGGGTKVEIKR | 6.7
39D2 (antibody, V domains shown, Fully human XenoMouse antibody, tested as hybridoma supernatant or purified mAb) VH: QVQLVQSGAEVKKPGASVKVSCKASGYTFTGYYIHWVRQAPGQGLEWMGWISPTSGATGYAQNFQGRVTMTRDTSITTAYMELSRLRSDDTAVYYCARDSNSVLYYYGMDVWGQGTTVTVSS VL: DIEMTQAPSSLSASVGDRVTITCRASQTIRRYLNWYQQKPGKAPKLLIYAASSLQNGVPSRFSGSVSGTDFTLTISSLQPEDFATYYCQQSYSTPLTFGGGTKVGIRR | 2

# input for lookup
Q: Bench note: what Potency [nM], Jurkat human TIGIT/IL-2-luciferase RGA, n = 1 did 58A7 (antibody, V domains shown, Tested as hybridoma supernatant or purified mAb; also called 48B7) VH: QVQLQESGPGLVKPSQTLSLTCTVSGGSISSGGYYWNWIRQHPGKGLEWIGYIYYSGSTFYNPSLKSRVIISVDTSKNQFSLKLSSVTAADTAVYYCARAPRYNWNYGWFDPWGQGTLVTVSS VL: EIVLTQSPGTLSLSPGERATLSCRASQNVSSTYLAWYQQKPGQAPRLLFYGASSRATGIPDRFSRSGSGTDFTLTISRLEPEDFAVYYCQQYDVSPWTFGQGTKVEIK show?
Ans: 7.9
